- System: MPNST multicellular tumor spheroids, viability % test/control
- run.description: Anticancer human tumor MPNST cell line growth inhibition;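 further: luminescence signal used as surrogate for viable cell amount; spheroids exposed to agents for seven days after three days of growth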
- condition: second compound 0.03 µM; first compound 0.3 µM; active compounds read low
Catalogue of viability, T/C values
Numeric only. Scale: %

Cn1ncnc1[C@H]1c2n[nH]c(=O)c3cc(F)cc(c23)N[C@@H]1c1ccc(F)cc1 + CC[C@@]1(O)C(=O)OCc2c1cc1n(c2=O)Cc2cc3c(CN(C)C)c(O)ccc3nc2-1 ... 59.7
Cc1sc2c(c1C)C(c1ccc(Cl)cc1)=NC(CC(=O)Nc1ccc(O)cc1)c1nnc(C)n1-2 (centres undefined) + CC[C@@]1(O)C(=O)OCc2c1cc1n(c2=O)Cc2cc3c(CN(C)C)c(O)ccc3nc2-1 ... 58.1
O=C(c1cc(Cc2n[nH]c(=O)c3ccccc23)ccc1F)N1CCN(C(=O)C2CC2)CC1 + CC[C@@]1(O)C(=O)OCc2c1cc1n(c2=O)Cc2cc3c(CN(C)C)c(O)ccc3nc2-1 ... 59.2

With those in mind, consider the next compound.
stdin: Quick one: give measured viability, T/C for CNCc1ccc(-c2cc(-c3nc(-c4ccc(S(=O)(=O)C(C)C)cc4)cnc3N)on2)cc1 + CC[C@@]1(O)C(=O)OCc2c1cc1n(c2=O)Cc2cc3c(CN(C)C)c(O)ccc3nc2-1
stdout: 57.1

---

- System: MPNST multicellular tumor spheroids, viability % test/control
- run.description: Anticancer human tumor MPNST cell line growth inhibition;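 further: luminescence signal used as surrogate for viable cell amount; spheroids exposed to agents for seven days after three days of growth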
- condition: second compound 30 pM; first compound 0.0316 µM; active compounds read low
experimental.readout: viability, T/C

Study these solved cases before continuing.
Cc1cc(C)c(CNC(=O)c2cc(-c3ccc(CN4CCOCC4)cc3)cc3c2cnn3C2CCCC2)c(=O)[nH]1 + COc1cc2c(cc1O)CCNC21CSC2c3c(OC(C)=O)c(C)c4c(c3C(COC1=O)N1C(O)C3Cc5cc(C)c(OC)c(O)c5C(C21)N3C)OCO4 ... 106%
CC1COCCN1c1cc(-c2ccnn2C)c2ccnc(-c3ccn[nH]3)c2n1 (stereo unspecified) + COc1cc2c(cc1O)CCNC21CSC2c3c(OC(C)=O)c(C)c4c(c3C(COC1=O)N1C(O)C3Cc5cc(C)c(OC)c(O)c5C(C21)N3C)OCO4 ... 47.3%
COc1cc(C)[nH]c(=O)c1CN1CCc2c(Cl)cc(C(OC)C3COC3)c(Cl)c2C1=O (stereo unspecified) + COc1cc2c(cc1O)CCNC21CSC2c3c(OC(C)=O)c(C)c4c(c3C(COC1=O)N1C(O)C3Cc5cc(C)c(OC)c(O)c5C(C21)N3C)OCO4 ... 73.7%
COc1ccc([C@@H](O)c2cc(-c3ncnc4cc(N5CCOCC5)ccc34)c(F)cc2Cl)nn1 + COc1cc2c(cc1O)CCNC21CSC2c3c(OC(C)=O)c(C)c4c(c3C(COC1=O)N1C(O)C3Cc5cc(C)c(OC)c(O)c5C(C21)N3C)OCO4 ... 97.1%

stdin: Quick one: give measured viability, T/C for CC(C)n1c(=O)n(C)c2cnc3cc(F)c(-c4ccc(OCCCN5CCCCC5)nc4)cc3c21 + COc1cc2c(cc1O)CCNC21CSC2c3c(OC(C)=O)c(C)c4c(c3C(COC1=O)N1C(O)C3Cc5cc(C)c(OC)c(O)c5C(C21)N3C)OCO4
stdout: 94.6%

stdin: Quick one: give measured viability, T/C for [2H]c1nc(C)nc([2H])c1-c1cc(NC[C@@H](C)c2cccc3c(C(=O)NC)ccnc23)ncn1 + COc1cc2c(cc1O)CCNC21CSC2c3c(OC(C)=O)c(C)c4c(c3C(COC1=O)N1C(O)C3Cc5cc(C)c(OC)c(O)c5C(C21)N3C)OCO4
stdout: 83.5%
